# TARGET: human serum albumin (HSA) (Homo sapiens, UniProt P02768)
# Construct: purchased H13H-2433
# Sequence (P02768 25-609): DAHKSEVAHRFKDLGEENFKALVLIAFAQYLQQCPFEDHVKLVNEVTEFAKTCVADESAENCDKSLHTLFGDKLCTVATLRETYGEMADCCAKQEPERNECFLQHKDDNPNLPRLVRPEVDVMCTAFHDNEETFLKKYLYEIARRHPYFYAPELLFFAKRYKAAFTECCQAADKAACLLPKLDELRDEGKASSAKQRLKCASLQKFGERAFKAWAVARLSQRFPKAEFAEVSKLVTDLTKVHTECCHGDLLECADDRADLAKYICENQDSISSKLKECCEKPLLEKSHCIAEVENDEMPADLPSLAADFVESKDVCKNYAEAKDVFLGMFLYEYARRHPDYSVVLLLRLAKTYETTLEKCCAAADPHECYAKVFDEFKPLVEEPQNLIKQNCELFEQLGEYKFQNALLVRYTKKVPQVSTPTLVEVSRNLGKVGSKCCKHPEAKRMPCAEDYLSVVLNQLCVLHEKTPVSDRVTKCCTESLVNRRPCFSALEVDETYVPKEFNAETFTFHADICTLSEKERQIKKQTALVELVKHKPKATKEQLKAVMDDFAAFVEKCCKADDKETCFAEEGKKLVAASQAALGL
# METHOD: Binding to HSA on a Chiralpak HSA column
# Format: in vitro ADME
# ASSAY CONTEXT: calibration with nine reference substances
*1 amine or outer side, *2 acyl side, *3 side chain or, on linkers, in order; H or OH if unused. Where a SMILES comes first, the peptide text is derived from it. Side-chain parts run from the residue outwards. [ ]: non-standard residue; d: D form. The star is where a group is joined. X1 = O=C(O)CC[C@H](NC(=O)N[C@@H](CCC(=O)N[C@H](CCCN*)C(=O)O)C(=O)O)C(=O)O; Benzoyl(4-SiFtBu2) = CC(C)(C)[Si](F)(c1ccc(C(=O)*)cc1)C(C)(C)C; Suc = O=C(CCC(=O)[*:2])[*:1]; dDap = NC[C@@H](N)C(=O)O
READOUT: Binding to HSA (%)
The reply should be a number in %, with the unit left off.

* CC(C)(C)[Si](F)(c1ccc(C(=O)NC[C@@H](NC(=O)[C@H](N)CNC(=O)[C@@H](CCC(=O)O)NC(=O)[C@H](N)CCC(=O)O)C(=O)N[C@H](CCCCNC(=O)CCC(=O)NCCC[C@@H](NC(=O)CC[C@H](NC(=O)N[C@@H](CCC(=O)O)C(=O)O)C(=O)O)C(=O)O)C(=O)O)cc1)C(C)(C)C [SiFA-PSMA ligand 04] | 97.9

# ---- query compound ----
Recorded Binding to HSA (compound CC(C)(C)[Si](F)(c1ccc(C(=O)NC[C@@H](NC(=O)[C@@H](Cc2ccccc2)NC(=O)[C@@H](CCC(=O)O)NC(=O)[C@H](N)CCC(=O)O)C(=O)N[C@H](CCCCNC(=O)CCC(=O)NCCC[C@@H](NC(=O)CC[C@H](NC(=O)N[C@@H](CCC(=O)O)C(=O)O)C(=O)O)C(=O)O)C(=O)O)cc1)C(C)(C)C [SiFA-PSMA ligand 03 i] (H-[dE][dE][dF][dDap](Benzoyl(4-SiFtBu2))[dK]([Suc-X1])-OH) ): 98.9

###

# TARGET: PSMA (Homo sapiens)
# METHOD: IC50 determination: PSMA binding affinity, competition with [125I]XII on LNCaP cells
*1 amine or outer side, *2 acyl side, *3 side chain or, on linkers, in order; H or OH if unused. Where a SMILES comes first, the peptide text is derived from it. Side-chain parts run from the residue outwards. [ ]: non-standard residue; d: D form. The star is where a group is joined. X1 = O=C(O)CC[C@H](NC(=O)N[C@@H](CCC(=O)N[C@H](CCCN*)C(=O)O)C(=O)O)C(=O)O; Benzoyl(4-SiFtBu2) = CC(C)(C)[Si](F)(c1ccc(C(=O)*)cc1)C(C)(C)C; γGlu = O=C(O)[C@H](CCC(=O)[*:2])N[*:1]; dCit = NC(=O)NCCC[C@@H](N)C(=O)O; Suc = O=C(CCC(=O)[*:2])[*:1]; dDap = NC[C@@H](N)C(=O)O; CO = O=C([*:1])[*:2]
Collected pIC50 values appear next to each entry.
Notebook: values listed as pIC50 are -log10 of the concentration (mol/L).

Answered cases to consult:
- CC(C)(C)[Si](F)(c1ccc(C(=O)NC[C@@H](NC(=O)[C@H](N)CNC(=O)[C@@H](CCC(=O)O)NC(=O)[C@H](N)CCC(=O)O)C(=O)N[C@H](CCCCNC(=O)CCC(=O)NCCC[C@@H](NC(=O)CC[C@H](NC(=O)N[C@@H](CCC(=O)O)C(=O)O)C(=O)O)C(=O)O)C(=O)O)cc1)C(C)(C)C [SiFA-PSMA ligand 04]: 7.91
- CC(C)(C)[Si](F)(c1ccc(C(=O)NC[C@@H](NC(=O)[C@@H](CCCNC(N)=O)NC(=O)[C@@H](CCCNC(N)=O)NC(=O)[C@H](N)CCCNC(N)=O)C(=O)N[C@H](CCCCNC(=O)CCC(=O)NCCC[C@@H](NC(=O)CC[C@H](NC(=O)N[C@@H](CCC(=O)O)C(=O)O)C(=O)O)C(=O)O)C(=O)O)cc1)C(C)(C)C [SiFA-PSMA ligand 05] (H-[dCit][dCit][dCit][dDap](Benzoyl(4-SiFtBu2))[dK]([Suc-X1])-OH): 7.79
- CC(C)(C)[Si](F)(c1ccc(C(=O)NC[C@@H](NC(=O)[C@H](N)CNC(=O)CC[C@H](NC(=O)N[C@@H](CCC(=O)O)C(=O)O)C(=O)O)C(=O)N[C@H](CCCCNC(=O)CCC(=O)NCCC[C@@H](NC(=O)CC[C@H](NC(=O)N[C@@H](CCC(=O)O)C(=O)O)C(=O)O)C(=O)O)C(=O)O)cc1)C(C)(C)C [SiFA-PSMA ligand 02 a]: 7.99
- CC(C)(C)[Si](F)(c1ccc(C(=O)N[C@H](CC(=O)N[C@H](CCCCNC(=O)CCC(=O)NCCC[C@@H](NC(=O)CC[C@H](NC(=O)N[C@@H](CCC(=O)O)C(=O)O)C(=O)O)C(=O)O)C(=O)O)C(=O)N[C@H](CCCCNC(=O)CCC(=O)NCCC[C@@H](NC(=O)CC[C@H](NC(=O)N[C@@H](CCC(=O)O)C(=O)O)C(=O)O)C(=O)O)C(=O)O)cc1)C(C)(C)C [SiFA-PSMA ligand 06]: 8.13
- CC(C)(C)[Si](F)(c1ccc(C(=O)NC[C@@H](NC(=O)CCCCCNC(=O)CC[C@@H](NC(=O)N[C@H](CCC(=O)O)C(=O)O)C(=O)O)C(=O)N[C@H](CCCCNC(=O)CCC(=O)NCCC[C@@H](NC(=O)CC[C@H](NC(=O)N[C@@H](CCC(=O)O)C(=O)O)C(=O)O)C(=O)O)C(=O)O)cc1)C(C)(C)C [SiFA-PSMA ligand 02 d]: 8.00
- CC(C)(C)[Si](F)(c1ccc(C(=O)N[C@H](CC(=O)N[C@H](CC(=O)NCCC[C@@H](NC(=O)c2cc(C(=O)O)cc(C(=O)O)c2)C(=O)NCCCC[C@@H](NC(=O)CC[C@H](NC(=O)N[C@@H](CCC(=O)O)C(=O)O)C(=O)O)C(=O)O)C(=O)O)C(=O)N[C@H](CC(=O)NCCC[C@@H](NC(=O)c2cc(C(=O)O)cc(C(=O)O)c2)C(=O)NCCCC[C@@H](NC(=O)CC[C@H](NC(=O)N[C@@H](CCC(=O)O)C(=O)O)C(=O)O)C(=O)O)C(=O)O)cc1)C(C)(C)C [SiFA-PSMA ligand 07]: 8.26

# ---- query compound ----
Recorded pIC50 (compound CC(C)(C)[Si](F)(c1ccc(C(=O)NC[C@@H](NC(=O)CNC(=O)CNC(=O)CNC(=O)CC[C@H](NC(=O)N[C@@H](CCC(=O)O)C(=O)O)C(=O)O)C(=O)N[C@H](CCCCNC(=O)CCC(=O)NCCC[C@@H](NC(=O)CC[C@H](NC(=O)N[C@@H](CCC(=O)O)C(=O)O)C(=O)O)C(=O)O)C(=O)O)cc1)C(C)(C)C [SiFA-PSMA ligand 02 e] ({Glu-CO-γGlu}-GGG[dDap](Benzoyl(4-SiFtBu2))[dK]([Suc-X1])-OH) ): 8.05

Numbers sourced from patent US12576169B2.
